- TEST SYSTEM: human thrombin (Homo sapiens)
- ASSAY SUMMARY: Stability of human thrombin solutions (fibrinogen clotting activity decay curves, T 70%)
- Format: physicochemical
- Design: The thrombin used in the study is human thrombin derived from plasma; purchased Biovitrum AB, Sweden; host or cells: human plasma
- CONDITION PARAMETERS: time to reach 70% of initial activity; 1 mg/ml thrombin in 10 mM HEPES, 0.13 M NaCl, pH 7.4, 37° C.
Measured T 70%, listed per entry for reference.
Use days as the unit, but write only the number.

Solved entries:
- O=S(=O)(O)CCN1CCOCC1 [morpholino ethyl sulphonic acid]: 3.2
- O=C(O)CCCN1CCOCC1 [morpholino propyl carboxylic acid]: 4.1
- C1COCCN1 [morpholine]: 8.5
- O=S(=O)(O)CCCCN1CCOCC1 [morpholino butyl sulphonic acid]: 4.0
- OCCN1CCOCC1 [morpholino ethyl alcohol]: 3.8

Let us move to another entry and its T 70%.
Here CCN(CC)CCN [N,N-diethylethylenediamine] was tested on human thrombin (Homo sapiens), and its T 70% came to 10
